FYI, the data here is from patent US20160355530A1.

Measured pEC50 by item
# Test system: HCV 1b-BB7 subgenomic replicon
# PROTOCOL TEXT: microbe, parasite or virus in culture
# Format: cell-based, HCV genotype 1b
# MEASUREMENT PARAMETERS: Hepatitis C virus, stable replicon, strain 1b BB7, 5% FBS + 40% human plasma; read-out: 1b BB7 5% FBS + 40% Human Plasma EC50
# pEC50 is unitless: minus log10 of the molar concentration; print number only

In the examples that follow, each entry is paired with its recorded pEC50.
COMPOUND: COc1ccc(CN(c2cc3oc(-c4ccc(F)cc4)c(C4=NOCC(=O)N4)c3cc2C2CC2)S(C)(=O)=O)cc1
SYSTEM NAME: HCV 1b-BB7 subgenomic replicon
OBSERVABLE: pEC50
VALUE OBSERVED: 5.03
--
COMPOUND: CCS(=O)(=O)CCN(c1cc2oc(-c3ccc(F)cc3)c(C3=NOCCN3)c2cc1C1CC1)S(C)(=O)=O
SYSTEM NAME: HCV 1b-BB7 subgenomic replicon
OBSERVABLE: pEC50
VALUE OBSERVED: 6.96
--
COMPOUND: CS(=O)(=O)N(Cc1cnc(-c2ccc3[nH]ccc3c2)s1)c1cc2oc(-c3ccc(F)cc3)c(-c3ncc[nH]3)c2cc1C1CC1
SYSTEM NAME: HCV 1b-BB7 subgenomic replicon
OBSERVABLE: pEC50
VALUE OBSERVED: 6.70
--
COMPOUND: CS(=O)(=O)N(Cc1ccccc1)c1ccc2c(-c3ncc[nH]3)c(-c3ccccc3)oc2c1
SYSTEM NAME: HCV 1b-BB7 subgenomic replicon
OBSERVABLE: pEC50
VALUE OBSERVED: 5.00
--
COMPOUND: CS(=O)(=O)N(CC(O)CO)c1cc2oc(-c3ccc(F)cc3)c(-c3ncc[nH]3)c2cc1C1CC1 (centres unmarked)
SYSTEM NAME: HCV 1b-BB7 subgenomic replicon
OBSERVABLE: pEC50
VALUE OBSERVED: 6.06

Fill in the recorded pEC50 for this compound, with HCV 1b-BB7 subgenomic replicon as test system: `CS(=O)(=O)N(CCCCO)c1cc2oc(-c3ccc(F)cc3)c(-c3noc(=O)[nH]3)c2cc1C1CC1`
5.00

Any idea what pEC50 came out for `CS(=O)(=O)N(CCCCO)c1cc2oc(-c3ccc(F)cc3)c(C3=NOCN3)c2cc1C1CC1` on HCV 1b-BB7 subgenomic replicon?
5.66

Quick check: pEC50 on HCV 1b-BB7 subgenomic replicon, item `CS(=O)(=O)CCCCN(c1cc2oc(-c3ccc(F)cc3)c(C3=NOCCN3)c2cc1C1CC1)S(C)(=O)=O` ?
7.09

Hello, I am looking for reported pEC50 with HCV 1b-BB7 subgenomic replicon for `CCOP(=O)(CCCN(c1cc2oc(-c3ccc(F)cc3)c(C3=NOCCN3)c2cc1C1CC1)S(C)(=O)=O)OCC` . Could you help?
6.67

Return pEC50 measured with HCV 1b-BB7 subgenomic replicon given this compound: `CC(C)=CCCN(c1cc2oc(-c3ccc(F)cc3)c(-c3ncc[nH]3)c2cc1C1CC1)S(C)(=O)=O`
6.18

State its pEC50 on HCV 1b-BB7 subgenomic replicon: `CS(=O)(=O)N(CCCCCO)c1cc2oc(-c3ccc(F)cc3)c(C3=NOCN3)c2cc1C1CC1`
5.74
